Assay: clinical
Details: human, in vivo, 20 mg, AUC0–24
Procedure: Blood samples were collected in heparinised tubes before treatment, every 15 min for 2 h, at 2 h 30 min, 3, 4, 6, 8, 10 and 24 h on days 1 and 14 for the measurement of BB-3644. Blood samples were kept on ice. […] Samples were analysed centrally in the Department of Drug Metabolism and Pharmacokinetics at British Biotech, UK. Samples were analysed for BB-3644 content using a validated reverse-phase HPLC method with mass spectrometric detection. The limit of quantification was 1 ng ml^−1. […]

[
  {
    "QUERY_SMILES": "CO[C@H](C(=O)NO)[C@@H](CC(C)C)C(=O)N[C@H](C(=O)Nc1ccccn1)C(C)(C)C",
    "OUTPUT_UNIT": "ng·h/mL",
    "AUC(0-t)": 781
  }
]

These data points were gathered from paper PMC2410175.
